Measured melting point accompanies every entry in the list below.
measurementKind: melting point

- NS(=O)(=O)c1ccc(NS(=O)(=O)c2ccc(N3C(=O)c4ccccc4C3=O)cc2)cc1: 261 to 263 °C
- O=C(O)c1ccc(NS(=O)(=O)c2ccc(N3C(=O)C4C5CCC(C5)C4C3=O)cc2)cc1 (stereo not drawn): 265 to 267 °C
- O=C(O)c1ccc(NS(=O)(=O)c2ccc(N3C(=O)CCC3=O)cc2)cc1: 243 to 245 °C (dec.)
- NC(=O)C1CCN(S(=O)(=O)c2ccc(N3C(=O)c4ccccc4C3=O)cc2)CC1: 217 to 220 °C
- NC(=O)c1ccc(NS(=O)(=O)c2ccc(N3C(=O)c4ccccc4C3=O)cc2)cc1: 240 to 242 °C
- CC(=O)Nc1ccc(NS(=O)(=O)c2ccc(N3C(=O)c4ccccc4C3=O)cc2)cc1: 220 to 222 °C
- O=C(O)c1ccc(NS(=O)(=O)c2ccc(N3C(=O)C4C5C=CC(C5)C4C3=O)cc2)cc1 (stereo not drawn): 241 to 243 °C
- O=C(O)C1CCN(S(=O)(=O)c2ccc(N3C(=O)c4ccccc4C3=O)cc2)CC1: 207 to 210 °C
- O=C(O)c1ccc(NS(=O)(=O)c2ccc(N3C(=O)C4CC=CCC4C3=O)cc2)cc1 (stereo not drawn): 250 to 252 °C
- N#Cc1ccc(NS(=O)(=O)c2ccc(N3C(=O)c4ccccc4C3=O)cc2)cc1: 224 to 226 °C
- O=C(O)c1ccc(NS(=O)(=O)c2ccc(N3C(=O)c4cccc5cccc(c45)C3=O)cc2)cc1: 284 to 286 °C
- O=C(O)c1ccc(NS(=O)(=O)c2ccc(NC(=O)c3ccccc3C(=O)O)cc2)cc1: 203 to 205 °C

----------
Experiment: Cytotoxicity assay (MTT) in Vero cells
Format: cell-based
Details: African green monkey, 72 h incubation with the compound only
CC50 at 72 h for assorted compounds
measurementKind: CC50 at 72 h

• NC(=O)C1CCN(S(=O)(=O)c2ccc(N3C(=O)c4ccccc4C3=O)cc2)CC1 = > 726 µM
• CC(=O)Nc1ccc(NS(=O)(=O)c2ccc(N3C(=O)c4ccccc4C3=O)cc2)cc1 = 181 µM
• O=C(O)CCCNS(=O)(=O)c1ccc(N2C(=O)c3ccccc3C2=O)cc1 = 283 µM
• N#Cc1ccc(NS(=O)(=O)c2ccc(N3C(=O)c4ccccc4C3=O)cc2)cc1 = 625 µM

----------
Documented CC50 at 72 h across a set of molecules
Test: Cytotoxicity assay (MTT) in Vero cells
Type: cell-based
Conditions: African green monkey, 72 h incubation with the compound only
measurementKind: CC50 at 72 h (µM)

- O=C(O)c1ccc(NS(=O)(=O)c2ccc(N3C(=O)c4cccc5cccc(c45)C3=O)cc2)cc1: 531
- NS(=O)(=O)c1ccc(NS(=O)(=O)c2ccc(N3C(=O)c4ccccc4C3=O)cc2)cc1: 437
- O=C(O)c1ccc(NS(=O)(=O)c2ccc(N3C(=O)CCC3=O)cc2)cc1: 345

----------
Experiment: Cytotoxicity assay (MTT) in Vero cells
Assay type: cell-based
Details: African green monkey, 24 h incubation with the compound only
Here the recorded CC50 at 24 h is given for each entry.
measurementKind: CC50 at 24 h

- O=C(O)c1ccc(NS(=O)(=O)c2ccc(N3C(=O)c4ccccc4C3=O)cc2)cc1 [Compound 2a, reference compound]: > 1180 µM
- O=C(O)CCCNS(=O)(=O)c1ccc(N2C(=O)c3ccccc3C2=O)cc1: 1260 µM
- O=C(O)c1ccc(NS(=O)(=O)c2ccc(N3C(=O)C4CC=CCC4C3=O)cc2)cc1 (stereo not shown): 933 µM
- O=C(O)c1ccc(NS(=O)(=O)c2ccc(NC(=O)c3ccccc3C(=O)O)cc2)cc1: > 1140 µM
- O=C(O)c1ccc(NS(=O)(=O)c2ccc(N3C(=O)C4C5CCC(C5)C4C3=O)cc2)cc1 (stereo not shown): > 1140 µM
- O=C(O)c1ccc(NS(=O)(=O)c2ccc(N3C(=O)CCC3=O)cc2)cc1: > 1340 µM
- O=C(O)c1ccc(NS(=O)(=O)c2ccc(N3C(=O)C4C5C=CC(C5)C4C3=O)cc2)cc1 (stereo not shown): > 1140 µM

----------
Below, each entry is listed alongside its reported CC50 at 72 h.
Experiment: Cytotoxicity assay (MTT) in Vero cells
Format: cell-based
Details: African green monkey, 72 h incubation with the compound only
measurementKind: CC50 at 72 h

- O=C(O)c1ccc(NS(=O)(=O)c2ccc(N3C(=O)C4CC=CCC4C3=O)cc2)cc1 (centres unmarked) [Compound 7b]: 474 µM
- CCOC(=O)c1ccc(NS(=O)(=O)c2ccc(N3C(=O)c4ccccc4C3=O)cc2)cc1 [Compound 2b]: 40 µM
- O=C(O)c1ccc(NS(=O)(=O)c2ccc(N3C(=O)C4C5C=CC(C5)C4C3=O)cc2)cc1 (centres unmarked) [Compound 7c]: > 684 µM
- O=C(O)c1ccc(NS(=O)(=O)c2ccc(N3C(=O)C4C5CCC(C5)C4C3=O)cc2)cc1 (centres unmarked) [Compound 7d]: 681 µM
- CCOC(=O)c1ccc(NS(=O)(=O)c2ccc(NC(=O)c3ccccc3C(=O)O)cc2)cc1 [Compound 3]: > 640 µM
- O=C(O)c1ccc(NS(=O)(=O)c2ccc(N3C(=O)c4ccccc4C3=O)cc2)cc1 [Compound 2a, reference compound]: > 710 µM
- O=C(O)c1ccc(NS(=O)(=O)c2ccc(NC(=O)c3ccccc3C(=O)O)cc2)cc1 [Compound 4]: > 227 µM
- NC(=O)c1ccc(NS(=O)(=O)c2ccc(N3C(=O)c4ccccc4C3=O)cc2)cc1 [Compound 2c]: 472 µM
